- system: T1, antigen PD1 (coated, construct not stated) (UniProt Q15116 25-170, limits assumed)
- T1 construct: also called PD1 antigen; PDCD1
- T1 sequence (Q15116 25-170 limits assumed): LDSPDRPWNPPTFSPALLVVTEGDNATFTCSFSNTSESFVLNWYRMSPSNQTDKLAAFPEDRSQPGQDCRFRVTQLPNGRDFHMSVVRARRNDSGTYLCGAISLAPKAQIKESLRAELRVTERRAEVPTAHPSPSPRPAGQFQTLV
- protocolDescription: scFv-phage ELISA

{"binder": "PD1-31F3 (antibody, V domains shown, scFv-phage in the screening ELISA; later whole IgG) VH: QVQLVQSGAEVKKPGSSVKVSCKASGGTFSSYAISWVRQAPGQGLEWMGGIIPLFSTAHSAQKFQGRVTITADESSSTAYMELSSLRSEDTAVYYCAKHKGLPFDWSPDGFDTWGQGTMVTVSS VL: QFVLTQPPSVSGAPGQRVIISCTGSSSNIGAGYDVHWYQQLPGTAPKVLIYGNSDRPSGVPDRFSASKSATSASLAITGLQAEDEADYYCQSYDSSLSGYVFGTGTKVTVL", "OD490": 2}
{"binder": "PD1-42G4 (antibody, V domains shown, scFv-phage in the screening ELISA; later whole IgG) VH: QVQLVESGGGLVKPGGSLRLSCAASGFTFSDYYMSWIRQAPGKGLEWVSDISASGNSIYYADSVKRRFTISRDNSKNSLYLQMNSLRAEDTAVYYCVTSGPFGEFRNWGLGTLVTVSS VL: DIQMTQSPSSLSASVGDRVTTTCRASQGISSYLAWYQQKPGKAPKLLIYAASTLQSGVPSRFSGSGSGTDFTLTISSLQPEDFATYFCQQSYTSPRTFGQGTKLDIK", "OD490": 2.8}
{"binder": "PD1-49A2 (antibody, V domains shown, scFv-phage in the screening ELISA; whole IgG in the other assays; also called Parent 49A2) VH: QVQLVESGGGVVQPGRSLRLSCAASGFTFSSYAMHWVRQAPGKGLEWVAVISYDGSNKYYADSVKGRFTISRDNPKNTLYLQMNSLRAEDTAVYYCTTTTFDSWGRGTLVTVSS VL: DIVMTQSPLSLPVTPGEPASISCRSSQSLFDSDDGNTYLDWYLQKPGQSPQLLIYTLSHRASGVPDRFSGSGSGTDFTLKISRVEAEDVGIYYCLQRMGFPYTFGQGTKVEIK", "OD490": 3.6}
{"binder": "PD1-29H3 (antibody, V domains shown, scFv-phage in the screening ELISA; later whole IgG) VH: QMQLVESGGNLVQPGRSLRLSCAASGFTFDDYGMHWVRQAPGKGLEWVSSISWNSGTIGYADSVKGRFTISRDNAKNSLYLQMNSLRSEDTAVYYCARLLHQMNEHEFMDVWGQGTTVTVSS VL: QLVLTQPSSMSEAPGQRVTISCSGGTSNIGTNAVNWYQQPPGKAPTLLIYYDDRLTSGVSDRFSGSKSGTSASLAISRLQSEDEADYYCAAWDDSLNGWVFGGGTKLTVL", "OD490": 3.6}
{"binder": "PD1-52E8 (antibody, V domains shown, scFv-phage in the screening ELISA; whole IgG in the other assays) VH: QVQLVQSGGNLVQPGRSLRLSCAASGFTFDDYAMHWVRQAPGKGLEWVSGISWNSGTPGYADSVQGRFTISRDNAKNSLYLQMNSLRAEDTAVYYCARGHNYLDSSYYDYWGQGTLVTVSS VL: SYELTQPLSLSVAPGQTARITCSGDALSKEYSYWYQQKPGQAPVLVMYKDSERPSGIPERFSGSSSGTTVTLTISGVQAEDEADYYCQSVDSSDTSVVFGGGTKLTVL", "OD490": 0.4}
{"binder": "PD1-44B5 (antibody, V domains shown, scFv-phage in the screening ELISA; later whole IgG) VH: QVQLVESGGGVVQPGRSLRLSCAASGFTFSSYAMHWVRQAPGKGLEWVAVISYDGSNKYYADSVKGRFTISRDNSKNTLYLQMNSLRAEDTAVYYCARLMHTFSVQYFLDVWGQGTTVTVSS VL: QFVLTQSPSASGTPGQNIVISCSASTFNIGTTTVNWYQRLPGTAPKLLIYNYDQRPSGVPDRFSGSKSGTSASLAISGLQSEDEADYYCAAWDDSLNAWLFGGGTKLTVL", "OD490": 3.8}
{"binder": "PD1-49B9 (antibody, V domains shown, scFv-phage in the screening ELISA; later whole IgG) VH: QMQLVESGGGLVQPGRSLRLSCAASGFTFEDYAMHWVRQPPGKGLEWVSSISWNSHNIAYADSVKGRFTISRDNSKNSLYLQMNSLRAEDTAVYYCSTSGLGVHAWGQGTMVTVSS VL: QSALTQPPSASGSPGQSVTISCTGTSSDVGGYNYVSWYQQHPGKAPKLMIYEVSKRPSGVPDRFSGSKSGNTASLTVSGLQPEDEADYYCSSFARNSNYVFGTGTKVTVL", "OD490": 3.9}
{"binder": "PD1-45F4 (antibody, V domains shown, scFv-phage in the screening ELISA; later whole IgG) VH: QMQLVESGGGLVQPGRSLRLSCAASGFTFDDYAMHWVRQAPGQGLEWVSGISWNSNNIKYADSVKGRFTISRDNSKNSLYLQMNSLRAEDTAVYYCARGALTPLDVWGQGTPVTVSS VL: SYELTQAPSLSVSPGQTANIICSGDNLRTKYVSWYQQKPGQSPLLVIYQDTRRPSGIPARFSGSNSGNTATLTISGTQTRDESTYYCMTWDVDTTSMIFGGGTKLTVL", "OD490": 3.8}
{"binder": "PD1-48A9 (antibody, V domains shown, scFv-phage in the screening ELISA; whole IgG in the other assays) VH: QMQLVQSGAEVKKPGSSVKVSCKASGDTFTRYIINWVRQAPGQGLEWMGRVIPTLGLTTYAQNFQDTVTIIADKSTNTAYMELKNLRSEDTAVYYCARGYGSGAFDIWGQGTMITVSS VL: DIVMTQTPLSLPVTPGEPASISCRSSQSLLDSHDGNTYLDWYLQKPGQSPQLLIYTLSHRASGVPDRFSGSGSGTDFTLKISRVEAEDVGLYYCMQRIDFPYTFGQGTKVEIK", "OD490": 2.1}
{"binder": "PD1-32A6 (antibody, V domains shown, scFv-phage in the screening ELISA; later whole IgG) VH: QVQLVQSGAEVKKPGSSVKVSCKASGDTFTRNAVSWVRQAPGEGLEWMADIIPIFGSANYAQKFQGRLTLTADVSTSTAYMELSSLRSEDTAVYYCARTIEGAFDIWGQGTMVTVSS VL: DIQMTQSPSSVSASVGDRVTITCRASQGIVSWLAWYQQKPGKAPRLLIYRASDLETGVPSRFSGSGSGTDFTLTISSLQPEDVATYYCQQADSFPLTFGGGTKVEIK", "OD490": 3.5}
